Kindly supply the reported IC50 values for the records listed here.
- Tested on: HX62
- Experiment: Inhibition of cell proliferation, human cancer cell lines in culture (HX62)
- Assay type: cell-based
- Measurement Conditions: HX62, inherently resistant to cisplatin; read-out: concentration necessary to achieve a 50% decrease in cell proliferation
Reply numerically in µM, unit not repeated.

Specify IC50 for N.N.O=C([O-])C1(C(=O)[O-])CCC1.[Pt+2] [Carboplatin, reference compound] and stop.
85

Identify measured IC50 associated with N.N.[Cl][Pt][Cl] [Cisplatin, [PtCl2 (NH3)2], reference compound]
15.5

Consider the molecule Cc1cc[n+]([Pt-2]([NH3+])([OH])([OH])([Cl])[Cl])c(C)c1 . State its measured IC50.
72

Answer with the recorded IC50 for the molecule listed here: Cc1ccnc(C)c1.N.[Cl][Pt][Cl]
4.9

Find the measured IC50 of Cc1cccc[n+]1[Pt-2]([NH3+])([Cl])[Cl] and report it.
40

* * *

Answer each item with its documented pIC50.
- Test system: 41M
- Experiment: Inhibition of cell proliferation, human cancer cell lines in culture (41M)
- Type: cell-based
- Measurement Conditions: inherently cisplatin sensitive line, read-out: concentration necessary to achieve a 50% decrease in cell proliferation
Field pIC50 (float): negative decimal logarithm of the concentration in molar.

Identify the reported pIC50 for the following entry. N.N.O=C([O-])C1(C(=O)[O-])CCC1.[Pt+2] [Carboplatin, reference compound]
5.48

Find the measured pIC50 of Cc1ccnc(C)c1.N.[Cl][Pt][Cl] [Example 4] and report it.
5.37

Consider the molecule Cc1cccc[n+]1[Pt-2]([NH3+])([Cl])[Cl] [Example 1] and give its recorded pIC50.
5.39

Name the recorded pIC50 of the molecule listed here: N.N.[Cl][Pt][Cl] [Cisplatin, [PtCl2 (NH3)2], reference compound]
6.39

For the molecule Cc1cc[n+]([Pt-2]([NH3+])([OH])([OH])([Cl])[Cl])c(C)c1 [Example 7] , report pIC50.
5.10

* * *

- System: A2780
- Experiment: Inhibition of cell proliferation, human cancer cell lines in culture (A2780)
- Format: cell-based
- Measurement Conditions: A2780; read-out: concentration necessary to achieve a 50% decrease in cell proliferation
pIC50: −log10 of the molar value.
Label -1 if pIC50 falls below 6; label 1 in every other case.

// inclusive: pIC50 at least 6? input: N.N.O=C([O-])C1(C(=O)[O-])CCC1.[Pt+2] [Carboplatin, reference compound]
-1

Entry Cc1ccnc(C)c1.N.[Cl][Pt][Cl] [Example 4] : is its pIC50 no less than 6?
-1

Please tell me: is the compound Cc1cc[n+]([Pt-2]([NH3+])([OH])([OH])([Cl])[Cl])c(C)c1 [Example 7] at or over 6 in terms of pIC50?
-1

Does the reported pIC50 for N.N.[Cl][Pt][Cl] [Cisplatin, [PtCl2 (NH3)2], reference compound] fall at or above the 6 mark?
1

* * *

- Tested on: A2780
- Experiment: Inhibition of cell proliferation, human cancer cell lines in culture (A2780)
- Type: cell-based
- Measurement Conditions: Homo sapiens, A2780, read-out: concentration necessary to achieve a 50% decrease in cell proliferation
Parameter Measured: IC50
Remember to follow the number with its unit.

Supply reported IC50 belonging to this compound: CC(C)c1ccccn1 [Example 5, 2-isopropylpyridine]
3.9 µM
